B1: STEAP1 (parent)
chain: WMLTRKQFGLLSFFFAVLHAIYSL

Variants of: B1
assay.comment: protein stability index of a GFP-peptide fusion (GPS, HEK-293T) (PSI 1-6); higher = more stable;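 note: lentivirally expressed fusions sorted by FACS into six bins by GFP to DsRed ratio, PSI derived from sequencing read proportions per bin multiplied by bin number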
condition.description: c terminus: a fixed tail appended
recorded.endpoint: protein stability index
Reply briefly: the number, and no unit.

Return reported protein stability index; argument: Y22M
2.45

Return reported protein stability index; argument: W1Y
2.37

Which protein stability index reading was recorded for the variant L11E ?
2.43

Requested field: protein stability index. Item: F8C
1.67

Recorded protein stability index of F8Q , please.
2.11

Item W1K has what recorded protein stability index?
1.63

Field request: protein stability index | item: L24I
1.86

What value of protein stability index has been reported for the following variant? F15L
2

Can you look up the measured protein stability index of K6R for me?
1.88

Given the variant V17F , what is its reported protein stability index?
3.24

Return reported protein stability index; argument: L10C
1.98

Sample F13M — what was its protein stability index?
2.13

Please look up its protein stability index: F8T
3.12

// query protein stability index value for entry Y22D
2.97

Using the record for G9V , report its protein stability index.
1.83

Entry under review: R5P . Reported protein stability index?
2.2

Could you tell me which protein stability index is on file for R5G ?
2.29

For the variant shown here, G9D , give the reported protein stability index.
3.04

May I ask what protein stability index has been recorded for L24Y ?
2

Using the record for V17Y , report its protein stability index.
2.99

Entry R5A : reported protein stability index = ?
1.04

Given the variant R5Q , what is its reported protein stability index?
2.21

Could you tell me which protein stability index is on file for S23W ?
2

I would be grateful if you could share the reported protein stability index for Q7F .
1.47

Please look up its protein stability index: R5Y
2.77

// protein stability index lookup, key: K6S
2.85

If you can, please state the reported protein stability index value of L3R .
1.71

Returns the measured protein stability index for the input variant. Input: F15W
1.55

What measured protein stability index goes with A16I ?
1.77

Item under review: V17N . Reported protein stability index?
4.05

Look at this variant and give its reported protein stability index. Y22P
2.29

# input variant: F14E ; wanted: its protein stability index
3.11

For the variant I21R , what protein stability index is on record?
3.01

# get_value(readout='protein stability index', item= Q7I )
1.61

Item Q7L has what recorded protein stability index?
1.94

Recorded protein stability index of L18H , please.
2.03

May I ask what protein stability index has been recorded for F8R ?
2.31

I'd like to know its protein stability index. The variant in question is R5E
2.03

From: the supplement of paper PMC10567573
